The measurements presented in this section are drawn from paper PMC5540273.

# Tested on: EPHA8
# stated.conditions: concentration: 1 μM, replicates: in singlicate; n = 1
property.measured: %Inh (%)
Lab book: enter the figure in %, no units written.

# count of solved cases: 4
1) Cc1cc(-c2ccc3c(c2)CC[C@@H](N[C@@H](C)c2ccccc2)C3)cnc1N.Cl [GW412617] = 8
2) CC(C)(C)c1ccc(C(=O)Nc2cn3cc(Cl)ccc3n2)cc1 = 0
3) Cc1cccc(-c2nc(-c3ccc(S(C)(=O)=O)cc3)sc2-c2ccnc(NCCc3ccccc3)c2)c1 = 0
4) Nc1nc(-c2nccs2)c(-c2ccnc3ccccc23)s1 [GW693542] = 17

Then this molecule:
Provide %Inh, tested on EPHA8, for CCn1c(-c2cccnc2O)nc2cnccc21 [SB-736715] .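 Also: KINOMEscan kinase panel screen.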
0
